B1: CPEB3 Ribozyme (parent)
chain: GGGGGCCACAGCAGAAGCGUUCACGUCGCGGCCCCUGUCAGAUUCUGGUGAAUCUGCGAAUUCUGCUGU

Variants of: B1
Assay: self-cleavage, relative activity (ratio to wild type); higher = more cleavage; co-transcriptional
Please enter criterion met where self-cleavage is greater than or equal to 0.5, and criterion not met where it is lower.

Study these solved cases before continuing.
> print(dat)
                      macromoleculesequence   qualitativelabel
1  GGGGGCCACAGCUGAAGCGUUCACGUCGCGGCCCCUGUCAGAUUCUGGUGAAUCUCCGAAUUCUGCUGU [A13U G56C]  criterion not met
2  GGGGGCCACAGCAGAAGCGUACACGUCGCGGCCCCUGUCAGAUUCUGGUGAAUCUGCGAAUUAUGCUGU [U21A C63A]      criterion met
3  GUGGGCCACAGCAGAAGCGUUCACGUCGCGGCCCCUGUCAGAUCCUGGUGAAUCUGCGAAUUCUGCUGU [G2U U44C]  criterion not met

Is self-cleavage at least 0.5? Consider GGGGGCCACAGCAGAAGCGUUCACGUCGCAGCCCCUGUCAGAUUCUGGUGUAUCUGCGAAUUCUGCUGU [G30A A51U] criterion met

Is self-cleavage at least 0.5? Consider GGGGGCCACAGCAGAAGCGUUCACGUCGGAGCCCCUGUCAGAUUCUGGUGAAUCUGCGAAUUCUGCUGU [C29G G30A] criterion not met

Is self-cleavage at least 0.5? Consider GGGGGCCACAGCAGAAGCGUUCACCUCGCGGCCCCUGUCAGAUUCUGGUGAAUCUGCGAAUCCUGCUGU [G25C U62C] criterion not met

Is self-cleavage at least 0.5? Consider GGGGGCCACAGCAGAAGCGUUCACGUCGCGGCCCCUGUCAGAUUCUGGUCAAGCUGCGAAUUCUGCUGU [G50C U53G] criterion met

Is self-cleavage at least 0.5? Consider GGGGGCCACAGCAGAAGCGUUGACGUCGCGGCCCCUUUCAGAUUCUGGUGAAUCUGCGAAUUCUGCUGU [C22G G37U] criterion met
